Test: Toxicity liver stage against HepG2, at 10uM
Format: cell-based
Design: test concentration 10 uM, cell line HepG2-A16-CD81EGFP
Run Conditions: human, HepG2-A16-CD81EGFP cells; read-out: INHIBITION
The following molecules are shown together with reported cytotoxicity at 10 µM values.
API: value field is a number in %; no unit string.

Study these solved cases before continuing.
# Molecule, Endpoint Value
data = [
    ("O=C(NCc1ccccc1-n1cccn1)N1CCC(N2CCCC2)C1 (stereo not drawn)", -0.554),
    ("O=C(c1cccc(-n2cccn2)c1)N1CCOC(CCO)C1 (stereo not drawn)", 0.0642),
    ("CCn1cc(-c2n[nH]c(=O)n2-c2ccc3c(c2)OCO3)c(C)n1", 2.25),
    ("Cc1ccc(C(=O)CC(SC2CCCCC2)C(=O)O)cc1 (stereo not drawn)", 7.53),
    ("O=S(=O)(CCN1CCOC(Cn2cncn2)C1)c1ccccc1 (stereo not drawn)", -9.78),
    ("Cn1c(C(=O)Nc2nc[nH]n2)cc2ccccc21", 1.24),
    ("Cc1ccc(-n2nc(C)cc2N)nn1", 16),
    ("CC(C)S(=O)(=O)NCC1CCCN(C(=O)c2ccc3c(c2)CCC3)C1 (stereo not drawn)", -14.7),
]

Query :: Which cytotoxicity at 10 µM value belongs to "O[C@@H]1C[C@@H](c2nc(-c3cccnc3)no2)N(C2CCOCC2)C1" ?
Result :: -4.03

Query :: Which cytotoxicity at 10 µM value belongs to O=C(c1cc[nH]n1)N1CCCC(c2cc(C(F)(F)F)[nH]n2)C1 (stereo not drawn) ?
Result :: -6.97

Query :: Which cytotoxicity at 10 µM value belongs to CC(C)C(CNC(=O)CCn1cncn1)N1CCc2ccccc2C1 (stereo not drawn) ?
Result :: -162

Query :: Which cytotoxicity at 10 µM value belongs to "COc1cccc(N2CCN(C(=O)CCO)CC2=O)c1" ?
Result :: 3.75

Query :: Which cytotoxicity at 10 µM value belongs to "CC(C)Cc1noc(CN2CCCN(C(=O)c3cccc(Cl)c3)CC2)n1" ?
Result :: -2.34

Query :: Which cytotoxicity at 10 µM value belongs to "COCCCNC(=O)Cn1nnc(-c2cc3ccccc3o2)n1" ?
Result :: 6.43

====

Test: Toxicity liver stage against HepG2, at 10uM
Assay type: cell-based
Design: test concentration 10 uM, cell line HepG2-A16-CD81EGFP
Run Conditions: human, HepG2-A16-CD81EGFP cells; read-out: INHIBITION
The following compounds are shown together with reported cytotoxicity at 10 µM values.
Record the result as number plus unit.

# Compound, cytotoxicity at 10 µM
measured = [
    ("CC(C)CN1CC2(CCN(C(=O)c3nc4ncccn4n3)CC2)CC1=O", "0.345%"),
    ("Cc1cccc(CN2CCOCC3(CCN(C4CCOCC4)C3)C2)n1 (stereo unspecified)", "-0.124%"),
    ("CCC(=O)N1CCCCC1c1nc(O)c2c(n1)CN(S(=O)(=O)CC)CC2 (stereo unspecified)", "1.7%"),
    ("CCc1cnc(N2C[C@@H]3C[C@H](C(=O)NC4CCC4)[C@H](C2)O3)nc1", "5.74%"),
]

Query :: Which cytotoxicity at 10 µM value belongs to "O=C([C@H]1COC[C@H]2CN(C3CCOCC3)C[C@H]21)N1CCCO1" ?
Result :: -4.68%

Query :: Which cytotoxicity at 10 µM value belongs to COC(=O)CC(C1=Cc2ccccc2OC1)c1oc(C)cc(=O)c1O (stereo unspecified) ?
Result :: -8.51%

Query :: Which cytotoxicity at 10 µM value belongs to "O=C(NCc1nnc2n1CCC2)c1cccc(Br)c1" ?
Result :: -0.115%

Query :: Which cytotoxicity at 10 µM value belongs to CN(CC(=O)N1CCCCC1c1nc(C(C)(C)C)cs1)C1CC1 (stereo unspecified) ?
Result :: -2.77%

Query :: Which cytotoxicity at 10 µM value belongs to "Cc1nn2c(-c3snnc3C)nnc2s1" ?
Result :: -4.19%

Query :: Which cytotoxicity at 10 µM value belongs to "CCCc1cc(N2CCC(NCC3(O)CCN(C)CC3)CC2)nc(C)n1" ?
Result :: -16.1%

Query :: Which cytotoxicity at 10 µM value belongs to "COc1ccc(OCCNC(=O)c2ccc3c(=O)[nH][nH]c(=O)c3c2)cc1" ?
Result :: -4.83%

====

Test: Toxicity liver stage against HepG2, at 10uM
Format: cell-based
Set-up: test concentration 10 uM, cell line HepG2-A16-CD81EGFP
Run Conditions: human, HepG2-A16-CD81EGFP cells; read-out: INHIBITION
Quantity Measured: cytotoxicity at 10 µM (%)
API: value field is a number in %; no unit string.

Study these solved cases before continuing.
# Compound, Unit Name, Endpoint Value
rows = [
    ("CCN1CCC(CC(=O)NC[C@H]2CCc3ccccc3O2)CC1", "%", -28.4),
    ("COCCO[C@H]1CCN(Cc2cccnc2)[C@H]1Cc1cccnc1", "%", 0.0623),
    ("O=S(=O)(NCCC(O)c1ccoc1)c1ccc(Cl)s1 (stereo unspecified)", "%", -0.847),
]

Consider now this further compound.
Query :: Which cytotoxicity at 10 µM value belongs to "O=C(O)CC[C@@H]1CN(c2ncccc2F)CC[C@@H]1N1CCOCC1" ?
Result :: -9.11

====

The following compounds are shown together with reported cytotoxicity at 10 µM values.
Test: Toxicity liver stage against HepG2, at 10uM
Assay type: cell-based
Set-up: test concentration 10 uM, cell line HepG2-A16-CD81EGFP
Run Conditions: human, HepG2-A16-CD81EGFP cells; read-out: INHIBITION
API: value field is a number in %; no unit string.

Query :: Which cytotoxicity at 10 µM value belongs to "Cc1cc(C)n(Cc2ccc(C(=O)N3CCOCC3(C)C)cc2)n1" ?
Result :: -9.23

====

Test: Toxicity liver stage against HepG2, at 10uM
Format: cell-based
Parameters: test concentration 10 uM, cell line HepG2-A16-CD81EGFP
Run Conditions: human, HepG2-A16-CD81EGFP cells; read-out: INHIBITION
The following molecules are shown together with reported cytotoxicity at 10 µM values.
API: value field is a number in %; no unit string.

# Molecule, Quantity Measured, Endpoint Value
records = [
    ("COc1ccccc1CCC(=O)N1CCCC(OCc2cccnc2)C1 (centres undefined)", "cytotoxicity at 10 µM", 2.98),
    ("O=C(NCc1cccnc1N1CCCC(O)C1)c1ccsc1 (centres undefined)", "cytotoxicity at 10 µM", 14.3),
    ("CS(=O)(=O)NCC1CCCN(C(=O)c2cccc(F)c2)C1 (centres undefined)", "cytotoxicity at 10 µM", -6.93),
]

Consider now this further molecule.
Query :: Which cytotoxicity at 10 µM value belongs to "CC(C)CN1CCN(C(=O)c2cccnc2-n2cncn2)CC1" ?
Result :: 1.53

====

Test: Toxicity liver stage against HepG2, at 10uM
Assay type: cell-based
Set-up: test concentration 10 uM, cell line HepG2-A16-CD81EGFP
Run Conditions: human, HepG2-A16-CD81EGFP cells; read-out: INHIBITION
Quantity Measured: cytotoxicity at 10 µM (%)
API: value field is a number in %; no unit string.

Study these solved cases before continuing.
# Compound, Unit Name, cytotoxicity at 10 µM
measured = [
    ("Cc1cc(C(=O)NC2CCCc3c2cnn3-c2cccc(C)c2C)[nH]n1 (centres undefined)", "%", 51.4),
    ("COc1cc(N2CCC3(CC2)C(c2ccncc2)CC(=O)N3C)ncn1 (centres undefined)", "%", -107),
    ("CC(C)OCCS(=O)(=O)c1nccn1-c1cccc(F)c1", "%", -3.3),
    ("COc1ccc(OCCCN2CCOC(Cn3cccn3)C2)cc1 (centres undefined)", "%", 5.34),
    ("Cc1c(C(=O)N(C)c2ccccc2)cccc1N(C)S(C)(=O)=O", "%", 6.36),
    ("COCCN1CCC2(CCN(c3ncccn3)CC2)C1=O", "%", 3.47),
    ("COc1ccc(Cl)cc1CC(=O)N1CCN(CCO)CC1", "%", -9.51),
    ("Cn1cc(NC(=O)C2CC(c3ccccc3)C2)ccc1=O (centres undefined)", "%", -4.42),
]

Query :: Which cytotoxicity at 10 µM value belongs to "Cc1cccc(N(CC(=O)N2CCCCC2)Cc2nc(=O)[nH][nH]2)c1" ?
Result :: -2.85

Query :: Which cytotoxicity at 10 µM value belongs to "O=C(COc1ccccc1C(F)(F)F)NCCNC(=O)c1ccccc1" ?
Result :: -9.53

====

The following molecules are shown together with reported cytotoxicity at 10 µM values.
Test: Toxicity liver stage against HepG2, at 10uM
Assay type: cell-based
Design: test concentration 10 uM, cell line HepG2-A16-CD81EGFP
Run Conditions: human, HepG2-A16-CD81EGFP cells; read-out: INHIBITION
API: value field is a number in %; no unit string.

Study these solved cases before continuing.
# Molecule, cytotoxicity at 10 µM, %
records = [
    ("Cc1cc(N2CCCC2c2nnc3n2CCCCC3)nc(C)n1 (centres undefined)", 9.59),
    ("CNC(=O)COC1COC2(CCN(Cc3ccncc3F)CC2)C1 (centres undefined)", 7.37),
    ("CCN1CCCCC1C(=O)N1CCC(OCCOC)CC1 (centres undefined)", -6.81),
    ("O=C1NCCO[C@H]2CN(C(=O)CCc3ccccc3Cl)CC[C@@H]12", 1.96),
    ("COc1cccc(C2c3c(n[nH]c3C)N=C3COC(=O)C32)c1OC (centres undefined)", -5.34),
    ("O=C(c1cnn(-c2ccccc2)n1)N1CCCC(n2cccn2)C1 (centres undefined)", 1.13),
    ("Cc1nc2ccnn2c(C)c1CCC(=O)N1CCN2CCCCC2C1 (centres undefined)", -8.82),
    ("CC(=O)N1CC2(CCN(C(=O)c3ccoc3)C2)C1", 6.47),
    ("N#Cc1cccc(C(=O)N2CCN(c3ncccn3)CC2)c1", -0.0581),
    ("O=C(C1CCOC1)N1C[C@H]2CN(c3ccccc3)C(=O)[C@H]2C1 (some centres undefined)", -123),
]

Query :: Which cytotoxicity at 10 µM value belongs to "CC(=O)N1C[C@H](NS(=O)(=O)c2cccc(Cl)c2)[C@@H](C(C)C)C1" ?
Result :: 7.82

Query :: Which cytotoxicity at 10 µM value belongs to "Cc1ccccc1CC(=O)N(C)C1CCCC1" ?
Result :: 6.33

Query :: Which cytotoxicity at 10 µM value belongs to "Cn1cnc(S(=O)(=O)N2C[C@H](OCC3CC3)[C@H]3OCCC[C@H]32)c1" ?
Result :: -149

Query :: Which cytotoxicity at 10 µM value belongs to COCCN1CCC2(C1)c1ccccc1S(=O)(=O)N2C (centres undefined) ?
Result :: 11.4

Query :: Which cytotoxicity at 10 µM value belongs to "Cc1cc(CSc2ccccn2)on1" ?
Result :: 8.4

Query :: Which cytotoxicity at 10 µM value belongs to CS(=O)(=O)NCC(=O)NC(Cc1ccccc1)C1CCCC1 (centres undefined) ?
Result :: 0.69

Query :: Which cytotoxicity at 10 µM value belongs to "CN(Cc1cccc(C(N)=O)c1)c1ncc(C#N)cc1Cl" ?
Result :: 8.36

Query :: Which cytotoxicity at 10 µM value belongs to "O=C(N[C@H]1COC[C@@H]1N1CCCC1)c1c[nH]nc1C1CCCCC1" ?
Result :: -5.59

Query :: Which cytotoxicity at 10 µM value belongs to "Cc1occc1C(=O)N1CCOC2(CCCC2)C1" ?
Result :: -10.9

Query :: Which cytotoxicity at 10 µM value belongs to "CCS(=O)(=O)NCCNCc1ccc(Cl)c2cccnc12" ?
Result :: -0.969

Query :: Which cytotoxicity at 10 µM value belongs to CN1CCN(C2COC3(CCN(CC4CC4)CC3)C2)CC1 (centres undefined) ?
Result :: -6.81

Query :: Which cytotoxicity at 10 µM value belongs to Cc1noc(CCCC(=O)N2CCCCC2c2nccs2)n1 (centres undefined) ?
Result :: -87.5

Query :: Which cytotoxicity at 10 µM value belongs to "Cc1noc(CNc2ccccc2N2CCCCC2)n1" ?
Result :: -25.4

Query :: Which cytotoxicity at 10 µM value belongs to CCCN(CC)c1ccc(C(=O)N2CCCC2c2cnn(C)c2)cn1 (centres undefined) ?
Result :: -6.75
